- run.description: NCI Yeast Anticancer Drug Screen. Data for the mlh1 rad18 strain (AID 175)
- measurement.parameters: S. cerevisiae mlh1 rad18 strain growth inhibition; at 50.0 µM
The panel holds about 79,000 compounds, 15% with a hit somewhere; the sample as a whole holds those more often. Calls of active or inactive are those of the source. Cut-off read from the data, not from the text of the source: active = growth inhibition above about 70%; inactive = the rest.
Please reply with one of these outcomes: 1 = active, -1 = inactive

Incoming: Could you please tell me the result logged for O=C1c2ccccc2C(=O)N1NC1=NCCN1 in this assay?
Outgoing: -1

Incoming: Could you please tell me the result logged for CC(C)=CC(=O)OC(C)(C)C in this assay?
Outgoing: -1

Incoming: Could you please tell me the result logged for CCc1ccc[n+](-c2ccncc2CC)c1 in this assay?
Outgoing: -1

Incoming: Could you please tell me the result logged for COc1ccccc1NC(=O)C1=C(C)NC(C)=C(C(=O)Nc2ccccc2OC)C1c1ccccc1OC in this assay?
Outgoing: -1

Incoming: Could you please tell me the result logged for O=[N+]([O-])c1cc2c3ccccc3c([N+](=O)[O-])cc2c2ccccc12 in this assay?
Outgoing: -1

Incoming: Could you please tell me the result logged for Cc1ccc(S(=O)(=O)OCC(C)(C)CC#N)cc1 in this assay?
Outgoing: -1

Incoming: Could you please tell me the result logged for C[N+](C)(C)CCOC(=O)/C=C/c1cnc[nH]1 in this assay?
Outgoing: -1

Incoming: Could you please tell me the result logged for O=C(CCc1ccc(O)c(O)c1)OCCc1ccccc1 in this assay?
Outgoing: 1

Incoming: Could you please tell me the result logged for CC(C)NC(=O)N(C(=O)C(F)(F)F)C(C)C in this assay?
Outgoing: -1

Incoming: Could you please tell me the result logged for NC(Cc1ccccc1)C(=O)CCl (stereo unspecified) in this assay?
Outgoing: -1

Incoming: Could you please tell me the result logged for O=S(=O)(c1cccc(C(F)(F)F)c1)N(CCCCN(S(=O)(=O)c1cccc(C(F)(F)F)c1)S(=O)(=O)c1cccc(C(F)(F)F)c1)S(=O)(=O)c1cccc(C(F)(F)F)c1 in this assay?
Outgoing: -1

Values were extracted from PubChem BioAssay (NCI).
